Species: Homo sapiens
protocol-summary: Inhibition of His-tagged human recombinant BRPF1B bromodomain using biotinylated H4 (1 to 21)K5/8/12/16Ac peptide as substrate at 20 uM incubated for 0.5 hrs by AlphaScreen assay relative to control
measure-name: inhibition (%)
Answers are plain numbers, in %.

Recorded inhibition, per entry:
1) COc1ccccc1C(=O)Nc1cc2c(cc1N1CCCC1)n(C)c(=O)n2C ... 100
2) CCNC(=O)Nc1cc(C(=O)OC)cc2c(C(C)=O)c(C)[nH]c12 ... 100
3) COC(=O)c1cc(NC(=O)Nc2ccccc2OC)c2[nH]c(C)c(C(C)=O)c2c1 ... 91.9
4) CCCC(=O)Nc1cc(C(=O)OC)cc2c(C(C)=O)c(C)[nH]c12 ... 100

// each listed compound needs a value for inhibition
1. COC(=O)c1cc(NC(=O)Nc2ccccc2)c2[nH]c(C)c(C(C)=O)c2c1
2. CCOC(=O)Nc1cc(C(=O)OC)cc2c(C(C)=O)c(C)[nH]c12

1. 100
2. 100

// each listed compound needs a value for inhibition
1. COC(=O)c1cc(NC(=O)c2ccccc2OC)c2[nH]c(C)c(C(C)=O)c2c1
2. COC(=O)c1cc(NC(=O)c2ccccc2)c2[nH]c(C)c(C(C)=O)c2c1
3. COC(=O)c1cc(NS(=O)(=O)c2ccccc2)c2[nH]c(C)c(C(C)=O)c2c1
4. COC(=O)c1cc(NS(=O)(=O)c2ccccc2OC)c2[nH]c(C)c(C(C)=O)c2c1

[28.3, 100, 100, 100]

====

protocol-summary: Cytotoxicity against C57BL/6 mouse BMMC cells assessed as cell viability at 10 uM measured after 48 hrs by CCK-8 assay (reference value: 100%)
Format: toxicity, cell-based
assay-setup: read-out: Activity
measure-name: viability at 48 h, 10 µM
Remember to quote the unit after the number.

Recorded viability at 48 h, 10 µM, per entry:
1) CCOC(=O)Nc1cc(-c2ccncc2)cc2c(C(C)=O)c(C)[nH]c12 ... 107%
2) CC(=O)c1c(C)[nH]c2c(N(C)C)cc(-c3ccccn3)cc12 ... 28.9%
3) CCOC(=O)Nc1cc(C(=O)Nc2nccs2)cc2c(C(C)=O)c(C)[nH]c12 ... 104%
4) CC(=O)c1c(C)[nH]c2c(N(C)C)cc(-c3nccs3)cc12 ... 92.6%
5) CC(=O)c1c(C)[nH]c2c(N(C)C)cc(-c3ccncc3)cc12 ... 110%

Turning to the following molecule.
Given the molecule `CC(=O)c1c(C)[nH]c2c(NC3CCNCC3)cc(-c3cccnc3)cc12` , what is its reported viability at 48 h, 10 µM?
94.9%

====

For each entry below, report its viability at 48 h, 10 µM value.
protocol-summary: Cytotoxicity against C57BL/6 mouse BMMC cells assessed as cell viability at 10 uM measured after 48 hrs by CCK-8 assay (reference value: 100%)
Type: toxicity, cell-based
assay-setup: read-out: Activity
One number for each entry, in %.

1. CCOC(=O)Nc1cc(-c2ccccn2)cc2c(C(C)=O)c(C)[nH]c12 ... 110
2. CCOC(=O)Nc1cc(C(=O)NC)cc2c(C(C)=O)c(C)[nH]c12 ... 92.6
3. CCOC(=O)Nc1cc(-c2nccs2)cc2c(C(C)=O)c(C)[nH]c12 ... 111
4. CC(=O)c1c(C)[nH]c2c(N)cc(-c3cccnc3)cc12 ... 109

// each listed compound needs a value for viability at 48 h, 10 µM
1. CCOC(=O)Nc1cc(-c2ccccc2)cc2c(C(C)=O)c(C)[nH]c12
2. CCOC(=O)Nc1cc(C(=O)c2ccccc2)cc2c(C(C)=O)c(C)[nH]c12
3. COc1ccccc1S(=O)(=O)Nc1cc(-c2cccnc2)cc2c(C(C)=O)c(C)[nH]c12
4. CCOC(=O)Nc1cc(-c2cccnc2)cc2c(C(C)=O)c(C)[nH]c12
5. CC(=O)c1c(C)[nH]c2c(N(C)C)cc(-c3cccnc3)cc12
6. CC(=O)c1c(C)[nH]c2c(N3CCCC3)cc(-c3cccnc3)cc12

110
119
92.7
113
104
101

// provenance: ChEMBL document CHEMBL5329201
